FYI, the data here is from paper PMC9014410.

- protocol_text: In vivo pharmacokinetic study in male Sprague Dawley rats
- condition_info: rat, plasma, PO 10 mg/kg vs IV 2 mg/kg
recorded_endpoint: bioavailability at 24 h (%)
All answers are understood in %, so give the number only.

INPUT: Look at this compound and give its reported bioavailability at 24 h. FC(F)(F)c1ccc(-c2noc(CN3CCCC(CN4CCOCC4)C3)n2)cc1 (stereo not shown) [compound 9]
OUTPUT: 38.9

* * *

- protocol_text: In vivo pharmacokinetic study in male Sprague Dawley rats
- condition_info: rat, plasma, IV 2 mg/kg, mean ± SD, N = 4
recorded_endpoint: half-life at 24 h (h)
Your answer is read as h, so omit the unit and give the number.

INPUT: Which half-life at 24 h reading was recorded for the molecule FC(F)(F)c1ccc(-c2noc(CN3CCCC(CN4CCOCC4)C3)n2)cc1 (stereo not shown) ?
OUTPUT: 3.25

* * *

- protocol_text: In vivo pharmacokinetic study in male Sprague Dawley rats
- condition_info: rat, plasma, PO 10 mg/kg, mean ± SD, N = 4
recorded_endpoint: AUC(0-t) at 24 h (ng·h/mL)
Please respond with the number in ng·h/mL and leave the unit unwritten.

INPUT: I am curious: what AUC(0-t) at 24 h value has been reported for FC(F)(F)c1ccc(-c2noc(CN3CCCC(CN4CCOCC4)C3)n2)cc1 (stereo not shown) ?
OUTPUT: 540

* * *

- protocol_text: In vivo pharmacokinetic study in male Sprague Dawley rats
- condition_info: rat, plasma, PO 10 mg/kg, mean ± SD, N = 4
recorded_endpoint: Tmax at 24 h (min)
Supply the numeric figure in min, leaving out any unit text.

INPUT: Look up Tmax at 24 h for this compound: FC(F)(F)c1ccc(-c2noc(CN3CCCC(CN4CCOCC4)C3)n2)cc1 (stereo not shown)
OUTPUT: 49.8

* * *

- protocol_text: In vivo pharmacokinetic study in male Sprague Dawley rats
- condition_info: rat, plasma, IV 2 mg/kg, mean ± SD, N = 4
recorded_endpoint: AUC(0-t) at 24 h (ng·h/mL)
Only the number, expressed in ng·h/mL, is required.

INPUT: Requested read-out: AUC(0-t) at 24 h. Entry: FC(F)(F)c1ccc(-c2noc(CN3CCCC(CN4CCOCC4)C3)n2)cc1 (stereo not shown) [compound 9]
OUTPUT: 278

* * *

- protocol_text: In vivo pharmacokinetic study in male Sprague Dawley rats
- condition_info: rat, plasma, IV 2 mg/kg, mean ± SD, N = 4, read-out: Vss
recorded_endpoint: Vd at 24 h (L/kg)
State the answer as a number, implicitly in L/kg.

INPUT: For FC(F)(F)c1ccc(-c2noc(CN3CCCC(CN4CCOCC4)C3)n2)cc1 (stereo not shown) , what is its reported Vd at 24 h?
OUTPUT: 18.1

* * *

- tested_system: hERG channel (Homo sapiens, UniProt Q12809)
- Sequence (Q12809 whole entry): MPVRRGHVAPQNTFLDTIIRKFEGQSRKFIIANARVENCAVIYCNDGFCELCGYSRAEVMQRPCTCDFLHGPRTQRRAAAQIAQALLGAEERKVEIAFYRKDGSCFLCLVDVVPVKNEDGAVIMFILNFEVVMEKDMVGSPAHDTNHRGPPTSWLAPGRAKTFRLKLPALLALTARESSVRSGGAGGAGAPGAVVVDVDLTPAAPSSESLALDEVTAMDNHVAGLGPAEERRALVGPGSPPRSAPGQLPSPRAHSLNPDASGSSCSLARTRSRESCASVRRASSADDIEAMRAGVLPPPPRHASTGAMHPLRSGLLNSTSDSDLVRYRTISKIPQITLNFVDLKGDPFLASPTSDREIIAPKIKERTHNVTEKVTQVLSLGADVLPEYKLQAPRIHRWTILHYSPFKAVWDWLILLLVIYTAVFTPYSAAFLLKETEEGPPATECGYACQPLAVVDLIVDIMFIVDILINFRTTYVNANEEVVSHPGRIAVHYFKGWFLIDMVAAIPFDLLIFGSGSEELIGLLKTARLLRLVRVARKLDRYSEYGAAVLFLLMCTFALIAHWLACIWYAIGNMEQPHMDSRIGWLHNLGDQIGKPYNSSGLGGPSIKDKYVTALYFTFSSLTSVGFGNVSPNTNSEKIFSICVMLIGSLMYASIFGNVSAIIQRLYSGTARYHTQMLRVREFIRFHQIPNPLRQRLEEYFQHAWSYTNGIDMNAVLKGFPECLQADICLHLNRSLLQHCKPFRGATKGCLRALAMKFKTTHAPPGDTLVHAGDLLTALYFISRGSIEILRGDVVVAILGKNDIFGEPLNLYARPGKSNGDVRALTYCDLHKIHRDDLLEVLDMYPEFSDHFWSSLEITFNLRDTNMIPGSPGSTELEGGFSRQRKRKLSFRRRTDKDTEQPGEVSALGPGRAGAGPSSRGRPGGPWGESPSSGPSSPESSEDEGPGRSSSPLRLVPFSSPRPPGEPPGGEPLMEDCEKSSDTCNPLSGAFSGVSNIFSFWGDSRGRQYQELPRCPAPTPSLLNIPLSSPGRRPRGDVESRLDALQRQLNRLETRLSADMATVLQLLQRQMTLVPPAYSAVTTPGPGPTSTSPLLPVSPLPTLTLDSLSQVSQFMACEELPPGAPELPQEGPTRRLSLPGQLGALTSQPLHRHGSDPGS
- protocol_text: hERG channel inhibition, whole cell patch clamp in hERG-transfected CHO cells
recorded_endpoint: IC50 (µM)
// note: answer is a bare numeric in µM

INPUT: Fill in the blank: the reported IC50 of FC(F)(F)c1ccc(-c2noc(CN3CCCC(CN4CCOCC4)C3)n2)cc1 (stereo not shown) is ____.
OUTPUT: 4.13

* * *

- protocol_text: In vivo pharmacokinetic study in male Sprague Dawley rats
- condition_info: rat, plasma, IV 2 mg/kg, mean ± SD, N = 4
recorded_endpoint: C0
# do not omit the unit; it follows the number

INPUT: Please look up its C0: FC(F)(F)c1ccc(-c2noc(CN3CCCC(CN4CCOCC4)C3)n2)cc1 (stereo not shown) [compound 9]
OUTPUT: 492 ng/mL

* * *

Recorded Emax by entry
- tested_system: hGLP-1R (Homo sapiens, UniProt P43220)
- Sequence (P43220 24-463): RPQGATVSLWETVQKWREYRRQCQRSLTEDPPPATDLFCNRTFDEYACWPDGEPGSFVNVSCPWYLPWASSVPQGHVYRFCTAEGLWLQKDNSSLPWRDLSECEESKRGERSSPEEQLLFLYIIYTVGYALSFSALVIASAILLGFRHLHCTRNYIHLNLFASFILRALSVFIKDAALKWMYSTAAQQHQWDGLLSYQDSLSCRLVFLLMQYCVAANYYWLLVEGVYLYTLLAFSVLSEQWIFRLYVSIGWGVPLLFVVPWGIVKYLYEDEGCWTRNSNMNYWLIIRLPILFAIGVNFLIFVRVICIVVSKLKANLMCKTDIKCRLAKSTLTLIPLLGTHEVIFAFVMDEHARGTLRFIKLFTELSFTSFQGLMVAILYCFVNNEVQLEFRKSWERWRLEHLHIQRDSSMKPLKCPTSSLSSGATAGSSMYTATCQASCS
- protocol_text: cAMP accumulation in HEK-293 cells expressing hGLP-1R (HEK-GLP-1 cells)
- Assay type: cell-based
- condition_info: HEK293, read-out: Potentiation of GLP-1 Emax at 10 ?M in a cAMP assay (%); 10 ?M compound (supplementary csv)

COc1ccccc1-c1noc(CN2CCCC(CN3CCOCC3)C2)n1 (stereo not shown)
< 30%

INPUT: Given the entry O=C(CC1CCN(Cc2nc(-c3ccc(C(F)(F)F)cc3)no2)CC1)NS(=O)(=O)c1ccc(F)cc1 , report its measured Emax.
OUTPUT: < 30%

INPUT: Value lookup for Emax; key = FC(F)(F)c1cccc(-c2noc(CN3CCCC(CN4CCOCC4)C3)n2)c1 (stereo not shown)
OUTPUT: < 30%

INPUT: # get_value(readout='Emax', item= NC(=O)c1ccc(-c2noc(CN3CCCC(CN4CCOCC4)C3)n2)cc1 (stereo not shown) )
OUTPUT: < 30%

INPUT: Using the record for COC(=O)c1ccc(-c2noc(CN3CCCC(CN4CCOCC4)C3)n2)cc1 (stereo not shown) , report its Emax.
OUTPUT: < 30%

INPUT: Which measured Emax value corresponds to O=C(CC1CCN(Cc2nc(-c3ccc(C(F)(F)F)cc3)no2)CC1)NS(=O)(=O)c1cccc(F)c1 ?
OUTPUT: < 30%

INPUT: Request the reported Emax associated with Clc1ccc(-c2noc(CN3CCCC(CN4CCOCC4)C3)n2)cc1 (stereo not shown)
OUTPUT: < 30%

INPUT: // returns reported Emax for input CC(=O)c1cccc(S(=O)(=O)NC(=O)CC2CCN(Cc3nc(-c4ccc(C(F)(F)F)cc4)no3)CC2)c1
OUTPUT: < 30%

INPUT: Give the measured Emax of COc1ccc(Br)cc1S(=O)(=O)NC(=O)CC1CCN(Cc2nc(-c3ccc(C(F)(F)F)cc3)no2)CC1 .
OUTPUT: < 30%

INPUT: Find the recorded Emax belonging to CC(=O)c1cccc(S(=O)(=O)NCC2CCN(Cc3nc(-c4ccc(C(F)(F)F)cc4)no3)CC2)c1 and report it.
OUTPUT: < 30%

* * *

- protocol_text: In vivo pharmacokinetic study in male Sprague Dawley rats
- condition_info: rat, plasma, IV 2 mg/kg, mean ± SD, N = 4
recorded_endpoint: AUC(0-inf) at 24 h (ng·h/mL)
Answer format: numeric, ng·h/mL implied, no suffix.

INPUT: What value of AUC(0-inf) at 24 h has been recorded for this entry: FC(F)(F)c1ccc(-c2noc(CN3CCCC(CN4CCOCC4)C3)n2)cc1 (stereo not shown)
OUTPUT: 311

* * *

- tested_system: CYP2C9 (Homo sapiens)
- Sequence (P11712 whole entry): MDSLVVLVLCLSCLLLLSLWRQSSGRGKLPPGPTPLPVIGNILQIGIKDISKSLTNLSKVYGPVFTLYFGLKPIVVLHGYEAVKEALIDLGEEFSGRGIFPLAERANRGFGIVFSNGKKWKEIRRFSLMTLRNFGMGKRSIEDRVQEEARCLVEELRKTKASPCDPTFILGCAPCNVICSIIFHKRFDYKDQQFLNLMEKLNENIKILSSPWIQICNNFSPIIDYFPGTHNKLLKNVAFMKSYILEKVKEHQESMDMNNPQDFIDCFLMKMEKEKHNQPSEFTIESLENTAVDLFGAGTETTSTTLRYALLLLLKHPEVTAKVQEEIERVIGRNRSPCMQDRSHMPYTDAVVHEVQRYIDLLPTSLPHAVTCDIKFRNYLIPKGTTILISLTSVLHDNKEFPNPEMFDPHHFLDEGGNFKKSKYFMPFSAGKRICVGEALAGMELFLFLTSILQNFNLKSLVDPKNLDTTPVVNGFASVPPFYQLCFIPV
- protocol_text: P450 cytochrome inhibition, CYP2C9
- Type: in vitro ADME
recorded_endpoint: pIC50
Scale explanation: pIC50 corresponds to minus log10 of a concentration expressed in moles per litre.

INPUT: Given FC(F)(F)c1ccc(-c2noc(CN3CCCC(CN4CCOCC4)C3)n2)cc1 (stereo not shown) [compound 9] , state its recorded pIC50.
OUTPUT: 4.10

* * *

- tested_system: hGLP-1R (Homo sapiens)
- protocol_text: cAMP accumulation in HEK-293 cells expressing hGLP-1R (HEK-GLP-1 cells)
- Format: cell-based
- condition_info: HEK293, read-out: Potentiation of GLP-1 Emax at 10 ?M in a cAMP assay (%); 10 ?M compound (supplementary csv)
Property: Emax; scope: individual compounds

Consider the reported Emax for these compounds:
O=S(=O)(NCC1CCN(Cc2nc(-c3ccc(C(F)(F)F)cc3)no2)CC1)c1ccc(OC(F)(F)F)cc1
< 30%
O=C(NS(=O)(=O)c1ccccc1Cl)C1CCN(Cc2nc(-c3ccc(C(F)(F)F)cc3)no2)CC1
< 30%

INPUT: May I ask what Emax has been recorded for COc1ccc(Br)cc1S(=O)(=O)NC1CCN(Cc2nc(-c3ccc(C(F)(F)F)cc3)no2)CC1 ?
OUTPUT: < 30%

INPUT: Which Emax value belongs to O=C(NS(=O)(=O)c1ccc(OC(F)(F)F)cc1)C1CCN(Cc2nc(-c3ccc(C(F)(F)F)cc3)no2)CC1 ?
OUTPUT: < 30%

* * *

- protocol_text: In vivo pharmacokinetic study in male Sprague Dawley rats
- condition_info: rat, plasma, PO 10 mg/kg vs IV 2 mg/kg
recorded_endpoint: bioavailability

INPUT: What measured bioavailability goes with FC(F)(F)c1ccc(-c2noc(CN3CCCC(CN4CCOCC4)C3)n2)cc1 (stereo not shown) ?
OUTPUT: 39%
